system: CTL2-GFP (C. trachomatis L2/434/Bu, GFP-expressing); construct: L2/434/Bu, GFP-expressing; assay: microbe, parasite or virus in culture; set-up: species or system HeLa; C. trachomatis growth in HeLa, dose-response, mean of bulk GFP fluorescence and imaged total inclusion area; settings: Chlamydia trachomatis, 28.5 h; mean of GFP and inclusion area
Reported MIC values for a set of molecules

>  <molecule>
Cc1noc(-c2ccc3c(c2O)OCCO3)c1-c1ccc(Cl)cc1 [c20e]

>  <MIC [µM]>
2.69

$$$$
>  <molecule>
O=C1C(NCCO)=C(Nc2cccc(Cl)c2)C(=O)c2ccccc21 [c45e]

>  <MIC [µM]>
19.4

$$$$
>  <molecule>
COc1ccc(C2CC(=O)C=C(Nc3cc(Cl)ccc3O)C2)cc1 (stereo not shown) [c24e]

>  <MIC [µM]>
5.71

$$$$
>  <molecule>
COCC(=O)N[C@H]1C[C@H]2C(=O)Nc3ccc(/C=C/c4ccccc4)cc3C(=O)N2C1 [c25e]

>  <MIC [µM]>
9.14

$$$$
>  <molecule>
CN(C)c1ccc(Nc2nc(NCCO)c3ccccc3n2)cc1 [c27e]

>  <MIC [µM]>
5.04

$$$$
>  <molecule>
C1=C(CCNCCc2ccccc2)c2ccccc2C12CCCC2 [c51e]

>  <MIC [µM]>
9.36

$$$$
>  <molecule>
c1c(C2CC2)[nH]c2nc(N3CCCC3)nc(N3CCCC3)c12

>  <MIC [µM]>
0.669

$$$$
>  <molecule>
CCOc1ccc2nc(NC(=N)N)nc(C)c2c1 [c37e]

>  <MIC [µM]>
11.4

$$$$
>  <molecule>
COCCNc1nc2c(c(N3CCCCCC3)n1)CCNCC2 [c18e]

>  <MIC [µM]>
1.94

$$$$
>  <molecule>
COc1ccc([C@@H]2CN(C)C[C@H]2NC(=O)Nc2ccc(Cl)c(Cl)c2)cc1OC [c39e]

>  <MIC [µM]>
5.39

$$$$
